Target: FIH (Homo sapiens)
Sequence (Q9NWT6 whole entry): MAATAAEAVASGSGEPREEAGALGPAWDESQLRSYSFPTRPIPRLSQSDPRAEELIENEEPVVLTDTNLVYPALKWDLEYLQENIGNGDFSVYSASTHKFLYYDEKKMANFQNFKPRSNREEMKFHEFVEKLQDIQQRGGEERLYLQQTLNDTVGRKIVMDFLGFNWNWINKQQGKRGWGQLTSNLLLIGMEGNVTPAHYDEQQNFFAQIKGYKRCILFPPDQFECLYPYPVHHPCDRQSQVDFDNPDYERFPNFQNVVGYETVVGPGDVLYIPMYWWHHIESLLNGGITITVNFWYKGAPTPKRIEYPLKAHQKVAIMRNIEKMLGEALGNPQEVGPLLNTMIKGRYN
Test: SPE-MS FIH turnover (cosubstrate) assay in the absence of 2OG
Format: biochemical
Details: HIF-1α788–822 substrate, 330 μM 2OG or 2OG derivative, no 2OG, t = 15 min
outcomeMeasure: FIH activity, %-substrate conversion

See these solved cases before continuing.
[
  {
    "compound": "CCCC(CC(=O)O)C(=O)C(=O)O (centres unmarked)",
    "outcomeMeasure": "FIH activity, %-substrate conversion",
    "endpointValue": "< 1%"
  },
  {
    "compound": "Cc1cc(C(=O)O)ccc1C(=O)C(=O)O",
    "outcomeMeasure": "FIH activity, %-substrate conversion",
    "endpointValue": "^c<1% ^d<1%"
  },
  {
    "compound": "O=C(O)C(=O)C1(C(=O)O)CC1",
    "outcomeMeasure": "FIH activity, %-substrate conversion",
    "endpointValue": "^c<1% ^d<1%"
  },
  {
    "compound": "O=C(O)C(=O)c1ccc(C(=O)O)cc1",
    "outcomeMeasure": "FIH activity, %-substrate conversion",
    "endpointValue": "< 1%"
  }
]

// FIH activity, %-substrate conversion lookup, key: O=C(O)CC(CCCc1ccccc1)C(=O)C(=O)O (centres unmarked)
^c<1% ^d<1%

====

Molecular target: FIH (Homo sapiens)
Assay: SPE-MS FIH turnover (cosubstrate) assay in the absence of 2OG
Type: biochemical
Conditions: CA1–20 substrate, 330 μM 2OG or 2OG derivative, no 2OG, t = 15 min
outcomeMeasure: FIH activity, %-substrate conversion

Example cases with answers are listed next.
[
  {
    "molecule": "O=C(O)C(=O)C1CCC(C(=O)O)C1 (stereo not shown)",
    "endpointValue": "~5%"
  },
  {
    "molecule": "O=C(O)C(=O)c1ccccc1C(=O)O",
    "endpointValue": "^c<1% ^d<1%"
  },
  {
    "molecule": "CC(CC(=O)C(=O)O)C(=O)O (stereo not shown)",
    "endpointValue": "~80%"
  },
  {
    "molecule": "O=C(O)CCC(=O)C(=O)O [2OG, 2-Oxoglutarate]",
    "endpointValue": "> 95%"
  },
  {
    "molecule": "O=C(O)CC(Cc1ccc(F)cc1)C(=O)C(=O)O (stereo not shown)",
    "endpointValue": "^c<1% ^d<1%"
  }
]

// lookup FIH activity, %-substrate conversion for CC(C)(CC(=O)C(=O)O)C(=O)O
~10%

FIH activity, %-substrate conversion for CC(C)CC(CC(=O)C(=O)O)C(=O)O (stereo not shown) ?
~3%

// FIH activity, %-substrate conversion lookup, key: O=C(O)CC(Cc1ccccc1)C(=O)C(=O)O (stereo not shown)
^c<1% ^d<1%

Need FIH activity, %-substrate conversion, item O=C(O)CC(Cc1ccc(OC(F)(F)F)cc1)C(=O)C(=O)O (stereo not shown)
^c<1% ^d<1%

Entry CC1(C)c2ccccc2-c2ccc(CC(CC(=O)O)C(=O)C(=O)O)cc21 (stereo not shown) has what FIH activity, %-substrate conversion?
^c<1% ^d<1%

====

Target: FIH (Homo sapiens)
Experiment: SPE-MS FIH inhibition assay; note: 0.15 µM FIH
Type: biochemical
Conditions: […] FIH, 5.0 μM HIF-1α788-822, 10 μM 2OG; mean of two runs; read-out: IC50 FIH
outcomeMeasure: pIC50
Note: pIC50 values are expressed as the negative base-10 logarithm of concentration in M.

Answered examples (3):
[
  {
    "compound": "CC(C)(C)CCC(CC(=O)C(=O)O)C(=O)O (centres unmarked) [compound 17]",
    "pIC50": 4.41
  },
  {
    "compound": "CCC(CC(=O)C(=O)O)C(=O)O (centres unmarked) [compound 14, 4-ethyl-2OG]",
    "pIC50": 4.71
  },
  {
    "compound": "O=C(O)CC(Cc1ccccc1)C(=O)C(=O)O (centres unmarked) [compound 6]",
    "pIC50": 5.19
  }
]

For CC1(C)C(C(=O)O)C1C(=O)C(=O)O (centres unmarked) [compound 21] , what is its reported pIC50?
4.71

Could you share which pIC50 value was measured for CCCC(CC(=O)C(=O)O)C(=O)O (centres unmarked) [compound 15, 4-propyl-2OG] ?
4.83

Look up pIC50 for this compound: O=C(O)CC(Cc1ccc(OC(F)(F)F)cc1)C(=O)C(=O)O (centres unmarked) [compound 8]
4.90

Look up pIC50 for this compound: O=C(O)CC(Cc1ccc(F)cc1)C(=O)C(=O)O (centres unmarked) [compound 7]
5.12

====

Molecular target: UniProt:Q9NWT6
Test: SPE-MS FIH turnover (cosubstrate) assay in the absence of 2OG
Format: biochemical
Details: CA1–20 substrate, 330 μM 2OG or 2OG derivative, no 2OG, t = 15 min
outcomeMeasure: FIH activity, %-substrate conversion

Example cases with answers are listed next.
[
  {
    "compound": "O=C(O)C(=O)C12CCC(C(=O)O)(CC1)CC2 [compound 25]",
    "endpointValue": "^c<1% ^d<1%"
  },
  {
    "compound": "O=C(O)C(=O)c1ccc(C(=O)O)cc1 [compound 28, 4-Carboxyphenylglyoxylic acid]",
    "endpointValue": "~10%"
  },
  {
    "compound": "O=C(O)C(=O)CC(Cc1ccccc1)C(=O)O (stereo not drawn) [compound 19, 4-benzyl-2OG]",
    "endpointValue": "^c<1% ^d<1%"
  },
  {
    "compound": "CCCC(CC(=O)O)C(=O)C(=O)O (stereo not drawn) [compound 3, 3-propyl-2OG]",
    "endpointValue": "~10%"
  },
  {
    "compound": "Cc1cc(C(=O)O)ccc1C(=O)C(=O)O [compound 33]",
    "endpointValue": "^c<1% ^d<1%"
  }
]

As a next step, examine the compound that follows.
What FIH activity, %-substrate conversion value was documented for this compound, COc1ccc(CC(CC(=O)O)C(=O)C(=O)O)cc1 (stereo not drawn) [compound 9] ?
^c<1% ^d<1%

====

Molecular target: FIH (Homo sapiens)
Assay: SPE-MS FIH turnover (cosubstrate) assay in the absence of 2OG
Assay type: biochemical
Conditions: CA1–20 substrate, 330 μM 2OG or 2OG derivative, no 2OG, t = 15 min
outcomeMeasure: FIH activity, %-substrate conversion

Worked cases, answers included:
[
  {
    "compound": "O=C(O)C(=O)CC(Cc1ccc2ccccc2c1)C(=O)O (stereo not shown)",
    "testedOn": "FIH (Homo sapiens)",
    "FIH activity, %-substrate conversion": "^c<1% ^d<1%"
  },
  {
    "compound": "O=C(O)C(=O)CC(CCCc1ccccc1)C(=O)O (stereo not shown)",
    "testedOn": "FIH (Homo sapiens)",
    "FIH activity, %-substrate conversion": "^c<1% ^d<1%"
  },
  {
    "compound": "O=C(O)C(=O)c1ccc(C(=O)O)cc1F",
    "testedOn": "FIH (Homo sapiens)",
    "FIH activity, %-substrate conversion": "^c<1% ^d<1%"
  },
  {
    "compound": "O=C(O)C(=O)c1cscc1C(=O)O",
    "testedOn": "FIH (Homo sapiens)",
    "FIH activity, %-substrate conversion": "^c<1% ^d<1%"
  },
  {
    "compound": "CCC(CC(=O)O)C(=O)C(=O)O (stereo not shown)",
    "testedOn": "FIH (Homo sapiens)",
    "FIH activity, %-substrate conversion": "~20%"
  }
]

So what's the measured FIH activity, %-substrate conversion for this one? CC(C)(C)CCC(CC(=O)C(=O)O)C(=O)O (stereo not shown)
^c<1% ^d<1%

Which FIH activity, %-substrate conversion is reported for this compound? CCC(CC(=O)C(=O)O)C(=O)O (stereo not shown)
~75%

Using the record for O=C(O)C(=O)c1ccc(C(=O)O)s1 , report its FIH activity, %-substrate conversion.
^c<1% ^d<1%

// query FIH activity, %-substrate conversion value for entry O=C(O)C(=O)c1cccc(C(=O)O)c1
^c<1% ^d<1%

Please report the recorded FIH activity, %-substrate conversion for CC(CC(=O)O)C(=O)C(=O)O (stereo not shown) .
> 90%

====

# reported IC50; entries follow
Target: FIH (Homo sapiens)
Experiment: SPE-MS FIH inhibition assay; note: 0.15 µM FIH
Assay type: biochemical
Conditions: […] FIH, 5.0 μM HIF-1α788-822, 10 μM 2OG; mean of two runs; read-out: IC50 FIH
Write down the numeric answer in µM and omit the unit.

Example entries begin here.
[
  {
    "molecule": "O=C(O)C(=O)CC(Cc1ccc2ccccc2c1)C(=O)O (stereo not shown)",
    "unitAbbrev": "µM",
    "IC50": 2.5
  },
  {
    "molecule": "O=C(O)CC(CCCc1ccccc1)C(=O)C(=O)O (stereo not shown)",
    "unitAbbrev": "µM",
    "IC50": 5.7
  }
]

Give its IC50 value. Item: CC(C)(C)CCC(CC(=O)O)C(=O)C(=O)O (stereo not shown)
31

Request the reported IC50 associated with COc1ccc(CC(CC(=O)O)C(=O)C(=O)O)cc1 (stereo not shown)
3.6
